Source listed as ChEMBL document CHEMBL1142803.

- Tested on: Staphylococcus aureus
- Assay procedure: Minimum inhibitory concentration against gram positive Staphylococcus aureus (MTCC 96) using broth dilution method
- Format: functional
Quantity name: MIC (µg/mL)

I: CCCCCC(=O)Oc1cc2oc(-c3ccccc3)cc(=O)c2c(O)c1OC
II: COc1c(OC(=O)c2ccc(C)cc2)cc2oc(-c3ccccc3)cc(=O)c2c1O
Problem: Please indicate which has the smaller reported MIC: I , or II . Kindly state the label of the option you pick.
Solution: I

a: CCCC(=O)Oc1cc2oc(-c3ccccc3)cc(=O)c2c(O)c1OC
b: CCCCCCCCCCCC(=O)Oc1cc2oc(-c3ccccc3)cc(=O)c2c(O)c1OC
Problem: Please choose the item with the lower MIC value from this pair: a and b Your answer should be the label of the entry you select.
Solution: b
(b: 12.5 µg/mL, a: 25 µg/mL)

I: CCCCCCCCCCCCCCCCCC(=O)Oc1cc2oc(-c3ccccc3)cc(=O)c2c(O)c1OC
II: CCCCCCCCCCCCCC(=O)Oc1cc2oc(-c3ccccc3)cc(=O)c2c(O)c1OC
III: CC1(C)S[C@@H]2[C@H](NC(=O)COc3ccccc3)C(=O)N2[C@H]1C(=O)O
Problem: Give the ascending ranking of the items by reported MIC. State the ranking by listing the labels in the requested order.
Solution: III, I, II

P: COc1cc2oc(-c3ccccc3)cc(=O)c2c(OC)c1OC
Q: COc1c(OC(C)=O)cc2oc(-c3ccccc3)cc(=O)c2c1O
R: COc1c(OC(=O)C/C=C/c2ccccc2)cc2oc(-c3ccccc3)cc(=O)c2c1O
Problem: // sort entries: MIC, high to low # the answer lists labels in the order requested
Solution: Q, P, R
(Q: 50 µg/mL, P: 25 µg/mL, R: 12.5 µg/mL)
